Let's look at some compounds and their measured Velvetleaf plant response rating.
- System: velvetleaf
- protocol_details: Test B pre/postemergence velvetleaf
- Format: in vivo, Abutilon theophrasti
- reported_conditions: Rate 125 g/ha; Postemergence; scale 0 to 10, 0 no effect, 10 complete control
- Experimental: […] At the same time, these crop and weed species were also treated with postemergence applications of test chemicals formulated in the same manner. […] Treated plants and controls were maintained in a greenhouse for twelve to sixteen days, after which all species were compared to controls and visually evaluated. […]
recorded_endpoint: Velvetleaf plant response rating

[[record]]
structure_as_smiles = "Cc1ccccc1-n1c(=O)on(C(=O)N(c2ccccc2)C(C)C)c1=O"
recorded_endpoint = "Velvetleaf plant response rating"
reported_measurement = 0

[[record]]
structure_as_smiles = "Cc1cccc(C(C)C)c1-n1c(=O)on(C(=O)N(c2ccccc2)C(C)C)c1=O"
recorded_endpoint = "Velvetleaf plant response rating"
reported_measurement = 0

[[record]]
structure_as_smiles = "Cc1cccc(C)c1-n1c(=O)on(C(=O)N(Cc2ccccc2)C(C)C)c1=O"
recorded_endpoint = "Velvetleaf plant response rating"
reported_measurement = 0

[[record]]
structure_as_smiles = "CCc1ccccc1-n1c(=O)on(C(=O)N(c2ccc(F)cc2)C(C)C)c1=O"
recorded_endpoint = "Velvetleaf plant response rating"
reported_measurement = 0

[[record]]
structure_as_smiles = "Cc1ccccc1-n1c(=O)on(C(=O)N(Cc2ccccc2)C(C)C)c1=O"
recorded_endpoint = "Velvetleaf plant response rating"
reported_measurement = 0

